- ASSAY_REMARKS: Plasmodium falciparum growth inhibition, primary screen, strain 3D7, DAPI fluorescence, 100 nL (AID 1184);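 further: parasites grown inside human red blood cells in medium with human serum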
- CONDITION_CONTEXT: P. falciparum 3D7 growth, 3 d, higher = more signal
PARAMETER: z-score
Hey, just send me the number, nothing else.

CCc1cc2c(nc1CC)CCN(CCC(C)=NOC[C@@H](C)[C@H](OCc1ccccc1)C(C)C)C2 :: 0.23

Form field: reported z-score of COC(=O)[C@H](C)NC(=O)CCC1CC(OC(=O)NCc2cccc3ccccc23)CC2(CCCC(COC(=O)NCCc3ccccc3OC)O2)O1 (stereo not given in full)
-1.47

Form field: reported z-score of CO[C@@H](C(C)C)[C@@H](C)C1OC(=O)CC1O (stereo not given in full)
-1.69

Form field: reported z-score of CC(C)[C@@H](OCc1ccccc1)[C@H](C)C=NOC[C@@H](O)[C@H]1O[C@@H]2OC(C)(C)O[C@@H]2[C@H]1O
-0.489

Form field: reported z-score of CC(CCC(=O)OC[C@H]1O[C@H](C#Cc2ccccc2)C=C[C@@H]1Oc1ccc(C)cc1)=NOC[C@@H](C)[C@H](OCc1ccccc1)C(C)C
-0.0982

Form field: reported z-score of COCOc1ccc(Br)cc1C(=O)C=Cc1ccc2c(c1)OCO2
-1.42

Form field: reported z-score of CC(C)=NO[C@H](C)c1cn([C@@H]2COC[C@H]2O)nn1
0.672

Form field: reported z-score of CO[C@H]1COC(=O)[C@H](C)COC(=O)[C@H](C)NC(=O)CC=C[C@H]1C
0.0087

Form field: reported z-score of COC(=O)[C@H](C)NC(=O)CCC1CC(OC(=O)NCc2cccc3ccccc23)CC2(CCCC(COC(=O)NCCCN3CCCC3=O)O2)O1 (stereo not given in full)
-0.529

Form field: reported z-score of O=C1[C@H]2CCn3c(=O)n(-c4ccccc4)c(=O)n3[C@H]2[C@H](O)[C@@H]2O[C@H]12
-0.815

Form field: reported z-score of C[C@@H]1C=CCC(=O)OC[C@H](C)C(=O)N[C@@H](Cc2ccccc2)C(=O)OC1
-1.55

Form field: reported z-score of COc1ccc(O[C@H]2C=C[C@@H](c3ccccc3)O[C@@H]2COC(=O)NCc2cccc3ccccc23)cc1
-0.806

Form field: reported z-score of C[C@@H]1CC[C@H]2C(=O)O[C@@H](COc3ccc(C(C)(C)C)cc3)CN2[C@H]1c1ccc(Br)cc1
0.907

Form field: reported z-score of O=C1[C@H]2[C@H]3[C@H](O)[C@H](O)CC(=NOC[C@@H](O)COCc4ccco4)[C@@H]3CC[C@H]2C(=O)N1c1cccc(Oc2ccccc2)c1
0.48

* * *

- ASSAY_REMARKS: splicing luciferase reporter signal modulators, primary screen, spliceosome inhibition project, cell-based, HEK293, splice +/- reporter (AID 1101);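 further: HEK293 cells carrying a splicing-competent luciferase reporter gene; test concentration not given here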
- CONDITION_CONTEXT: luminescence, 24 h, higher = more signal, called active from +8 up or from −8 down
Category | rule: reported z-score within range, see lo (below -0.4), mid (-0.4 to below 0.4), hi (0.4 or more)

# count of solved cases: 4
CC(=O)OC[C@H]1O[C@H](CC=NOCC[C@@H]2C=C[C@H](OC(C)=O)[C@@H](COC(C)=O)O2)C=C[C@@H]1OC(C)=O :: hi
CCOC(=O)[C@H](Cc1ccccc1)NC(=O)CCC1CC(OC(=O)NCc2ccc3c(c2)OCO3)CC2(CCCC(COC(=O)NCCOC)O2)O1 (stereo not given in full) :: lo
CCN1C(=O)[C@H]2[C@H]3[C@H](O)[C@H](O)CC(=NO[C@H](C)c4cn([C@H](CO)Cc5ccccc5)nn4)[C@@H]3CC[C@H]2C1=O :: mid
CC(C)[C@H](NC(=O)OC(C)(C)C)[C@@H](O)CC(=O)C(C)(C)C :: mid

Each compound maps to one class by z-score. Which class for CO[C@H]1C[C@@H]2C[C@H](O)CC(CC(=O)O[C@@H](C=CCC(C)C)C[C@@H]3CC[C@H](C)[C@@H](C1)O3)O2 ?
mid

Each compound maps to one class by z-score. Which class for C#CCCCON=C1C[C@@H](O)[C@@H](O)[C@@H]2[C@@H]3C(=O)N(C[C@@H]4CCCO4)C(=O)[C@@H]3CC[C@H]12 ?
hi

Each compound maps to one class by z-score. Which class for C[C@@H]1CC[C@H]2C(=O)O[C@@H](CN=[N+]=[N-])CN2[C@H]1c1ccc(Br)cc1 ?
hi

Each compound maps to one class by z-score. Which class for CC(CCN1CCCc2nc(C)c(C)cc21)=NO[C@@H](C)c1cn([C@H](CO)Cc2ccccc2)nn1 ?
hi

Each compound maps to one class by z-score. Which class for C[C@H]1C=CCC(=O)OC[C@H](C)C(=O)N2CCC[C@H]2C(=O)OC1 ?
mid
